target or test system: UniProt:P35346
Sequence (P35346 whole entry): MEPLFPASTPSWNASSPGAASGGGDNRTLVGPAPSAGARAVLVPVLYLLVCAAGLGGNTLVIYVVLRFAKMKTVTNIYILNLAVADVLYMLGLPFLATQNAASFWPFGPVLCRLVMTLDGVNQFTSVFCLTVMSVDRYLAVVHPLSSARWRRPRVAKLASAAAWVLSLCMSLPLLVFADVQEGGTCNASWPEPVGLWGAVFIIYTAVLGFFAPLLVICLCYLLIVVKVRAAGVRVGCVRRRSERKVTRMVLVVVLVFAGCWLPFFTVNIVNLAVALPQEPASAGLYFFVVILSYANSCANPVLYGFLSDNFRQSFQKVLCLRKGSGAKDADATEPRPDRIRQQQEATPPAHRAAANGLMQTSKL
procedure text: Displacement of [125I]-[Leu8, DTrp22, Tyr25]-somatostatin-28 from human recombinant sst5 receptor expressed in chinese hamster CCL39 cells
Assay type: cell-based
pIC50: −log10 of the molar value.
As shown below, each of these compounds has a reported pIC50 value.
endpoint label: pIC50

{"chemical structure": "NCCCC[C@@H](C(=O)NCc1ccccc1)N1Cc2[nH]c3ccccc3c2C[C@@H](NC(=O)N2CCC(n3c(=O)[nH]c4ccccc43)CC2)C1=O", "endpoint label": "pIC50", "test value": 9.07}
{"chemical structure": "NCCCC[C@@H](C(=O)NCc1ccccc1)N1Cc2[nH]c3ccccc3c2C[C@@H](NC(=O)N2CCN(S(=O)(=O)c3ccccc3)CC2)C1=O", "endpoint label": "pIC50", "test value": 8.46}
{"chemical structure": "NCCCC[C@H](C(=O)NCc1ccccc1)N1Cc2[nH]c3ccccc3c2C[C@@H](NC(=O)Cc2ccccc2)C1=O", "endpoint label": "pIC50", "test value": 7.60}
{"chemical structure": "CC(=O)N[C@@H]1Cc2c([nH]c3ccccc23)CN([C@@H](CCCCN)C(=O)NCCc2ccccc2)C1=O", "endpoint label": "pIC50", "test value": 9.25}
{"chemical structure": "NCCCC[C@@H](C(=O)NCc1ccccc1)N1Cc2[nH]c3ccccc3c2C[C@@H](NC(=O)C2CCN(C(=O)c3ccccc3)CC2)C1=O", "endpoint label": "pIC50", "test value": 8.85}
{"chemical structure": "NCc1cccc(C[C@@H]2O[C@@H](CC(=O)NCc3ccccc3F)C(=O)N(Cc3ccc(-c4ccccc4)cc3)c3ccccc32)c1", "endpoint label": "pIC50", "test value": 9.52}

Reference source for all entries: ChEMBL document CHEMBL1139341
